Test system: P. vulgatus WT
PROTOCOL_DETAILS: growth AUC normalised to DMSO control (median) (fraction of control); higher = less growth inhibition, active = hit call of the paper;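 note: active when median AUC fell below 0.1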
RECORDED_CONDITIONS: 20 µM
Counter-ions that a name gives are not always drawn.
READOUT_TYPE: growth AUC normalised to DMSO control

molecule=Nc1cc(C(Cl)=C(Cl)Cl)c(S(N)(=O)=O)cc1S(N)(=O)=O readout_type="growth AUC normalised to DMSO control" reported_result=0.998
molecule="O=P(O)(O)C(O)(Cn1ccnc1)P(=O)(O)O [Zoledronic acid hydrate]" readout_type="growth AUC normalised to DMSO control" reported_result=0.988
molecule="COc1ccccc1OCC(O)CN1CCN(CC(=O)Nc2c(C)cccc2C)CC1 (centres undefined)" readout_type="growth AUC normalised to DMSO control" reported_result=1
molecule=CC(=O)N[C@@H](CC(C)C)C(=O)O readout_type="growth AUC normalised to DMSO control" reported_result=0.997
molecule="COc1cc(C)nc(-n2nc(C)cc2OC)n1 [Epirizole]" readout_type="growth AUC normalised to DMSO control" reported_result=0.999
molecule="O=C(O)[C@H]1/C(=C/CO)O[C@@H]2CC(=O)N21 [Clavulanate potassium salt]" readout_type="growth AUC normalised to DMSO control" reported_result=1.12
molecule="O=C(Oc1ccccc1)c1ccccc1O [Phenyl salicylate]" readout_type="growth AUC normalised to DMSO control" reported_result=1.06
molecule=CC(=O)OC[C@H]1O[C@@H]([S-])[C@H](OC(C)=O)[C@@H](OC(C)=O)[C@@H]1OC(C)=O.CCP(CC)CC.[Au+] readout_type="growth AUC normalised to DMSO control" reported_result=0.233
molecule=Cn1cnc([N+](=O)[O-])c1Sc1ncnc2[nH]cnc12 readout_type="growth AUC normalised to DMSO control" reported_result=0.92

---

Test system: S. enterica typhimurium tolC KO
PROTOCOL_DETAILS: growth AUC normalised to DMSO control (median) (fraction of control); higher = less growth inhibition, active = hit call of the paper
RECORDED_CONDITIONS: 20 µM
Structures can show the parent of a compound that is named as a salt.
Quick reference: growth AUC normalised to DMSO control of the listed items.
READOUT_TYPE: growth AUC normalised to DMSO control

compound="COc1ccc(CN(CCN(C)C)c2ccccn2)cc1 [Pyrilamine maleate]" readout_type="growth AUC normalised to DMSO control" reported_result="0.987 (inactive)"
compound="C#C[C@]1(OC(C)=O)CC[C@H]2[C@@H]3CCC4=C[C@@H](OC(C)=O)CC[C@@H]4[C@H]3CC[C@@]21C [Ethynodiol diacetate]" readout_type="growth AUC normalised to DMSO control" reported_result="0.941 (inactive)"
compound="Cc1cc(C)nc(NS(=O)(=O)c2ccc(N)cc2)n1 [Sulfamethazine sodium salt]" readout_type="growth AUC normalised to DMSO control" reported_result="1.01 (inactive)"
compound=Cn1c(=O)c2c(ncn2C)n(C)c1=O readout_type="growth AUC normalised to DMSO control" reported_result="0.999 (inactive)"
compound=NC(N)=Nc1nc(CSCC/C(N)=N/S(N)(=O)=O)cs1 readout_type="growth AUC normalised to DMSO control" reported_result="0.996 (inactive)"
compound=CCCCC[C@H](O)/C=C/[C@H]1[C@H](O)CC(=O)[C@@H]1CCCCCCC(=O)O readout_type="growth AUC normalised to DMSO control" reported_result="1.01 (inactive)"
compound=OCC(CO)N[C@H]1C[C@](O)(CO)[C@@H](O)[C@H](O)[C@H]1O readout_type="growth AUC normalised to DMSO control" reported_result="1.02 (inactive)"
compound=O=C1CN(/N=C/c2ccc([N+](=O)[O-])o2)C(=O)N1 readout_type="growth AUC normalised to DMSO control" reported_result="0.858 (inactive)"
compound="CC[N+](CC)(CC(=O)Nc1c(C)cccc1C)Cc1ccccc1 [Denatonium benzoate]" readout_type="growth AUC normalised to DMSO control" reported_result="1.01 (inactive)"
compound=CCCc1nc(C)c2c(=O)nc(-c3cc(S(=O)(=O)N4CCN(CC)CC4)ccc3OCC)[nH]n12 readout_type="growth AUC normalised to DMSO control" reported_result="0.984 (inactive)"
compound="CN(C)CC/C=C1/c2ccccc2Sc2ccc(Cl)cc21 [Chlorprothixene hydrochloride]" readout_type="growth AUC normalised to DMSO control" reported_result="0.912 (inactive)"
compound=CN(C/C=C/C#CC(C)(C)C)Cc1cccc2ccccc12 readout_type="growth AUC normalised to DMSO control" reported_result="0.928 (inactive)"
compound=CC(C)(C#N)c1cc(Cn2cncn2)cc(C(C)(C)C#N)c1 readout_type="growth AUC normalised to DMSO control" reported_result="0.996 (inactive)"
